Reported values of pKi for individual entries
biological target: 5-hydroxytryptamine receptor 1D (Homo sapiens); test: Displacement of [3H]LSD from human 5-HT1D receptor expressed in HEK cell membranes after 1.5 hrs by microbeta scintillation counting method
Sequence (P28221 whole entry): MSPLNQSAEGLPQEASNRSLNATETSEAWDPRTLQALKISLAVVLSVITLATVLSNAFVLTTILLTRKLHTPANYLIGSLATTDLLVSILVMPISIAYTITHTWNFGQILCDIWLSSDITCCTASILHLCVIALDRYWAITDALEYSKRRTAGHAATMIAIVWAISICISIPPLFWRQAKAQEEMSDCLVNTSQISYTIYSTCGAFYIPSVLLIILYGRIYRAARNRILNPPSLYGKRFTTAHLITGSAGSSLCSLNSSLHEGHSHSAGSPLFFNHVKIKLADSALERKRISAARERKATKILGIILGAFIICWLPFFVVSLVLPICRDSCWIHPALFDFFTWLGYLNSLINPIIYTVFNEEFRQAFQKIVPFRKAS
Scale for pKi: -log10 of concentration given in mol/L; no unit attached.

* Clc1ccc(-c2n[nH]c3c2CCNCC3)cc1 | 5.68

Next, consider the following compound.
pKi in this record for Cc1ccc(-c2n[nH]c3c2CCNCC3)cc1 : 6.78

---

experiment: AUClast in ICR mouse at 5 mg/kg, iv by LC-MS/MS analysis; format: ADME, organism-based; set-up: dose 5 mg/kg, time 0 - last, route intravenous; conditions: in vivo
Property name: AUC(0-t) (ng·h/mL)
Please state the figure in ng·h/mL; there is no need to write the unit.

AUC(0-t) in this record for Clc1ccc(-c2n[nH]c3c2CCNCC3)cc1 : 4900
